methodNotes: Approximate solubility determined by visual observation
Type: physicochemical
reportedConditions: methanol, organic solvent or mixture, solvent Methanol, read-out: Solubility of Form F
measurementLabel: solubility

Entry N#C[C@H](C[C@@H]1CCCNC1=O)NC(=O)[C@H](CC1CC1)NC(=O)c1cc2cccc(Cl)c2[nH]1 [Form F, hydrate] : reported solubility = ?
> 11 mg/mL

---

methodNotes: Approximate solubility determined by visual observation
Assay type: physicochemical
reportedConditions: acetone, organic solvent or mixture, solvent Acetone, read-out: Solubility of Form F
measurementLabel: solubility

Item under review: N#C[C@H](C[C@@H]1CCCNC1=O)NC(=O)[C@H](CC1CC1)NC(=O)c1cc2cccc(Cl)c2[nH]1 [Form F, hydrate] . Reported solubility?
< 2000 µg/mL

# credit: patent US20240208933A1
